Catalogue of compounds with associated IC50
assay-system: EGFR wild type (Homo sapiens)
Construct: purchased Carna Bio
Sequence (P00533 25-1210): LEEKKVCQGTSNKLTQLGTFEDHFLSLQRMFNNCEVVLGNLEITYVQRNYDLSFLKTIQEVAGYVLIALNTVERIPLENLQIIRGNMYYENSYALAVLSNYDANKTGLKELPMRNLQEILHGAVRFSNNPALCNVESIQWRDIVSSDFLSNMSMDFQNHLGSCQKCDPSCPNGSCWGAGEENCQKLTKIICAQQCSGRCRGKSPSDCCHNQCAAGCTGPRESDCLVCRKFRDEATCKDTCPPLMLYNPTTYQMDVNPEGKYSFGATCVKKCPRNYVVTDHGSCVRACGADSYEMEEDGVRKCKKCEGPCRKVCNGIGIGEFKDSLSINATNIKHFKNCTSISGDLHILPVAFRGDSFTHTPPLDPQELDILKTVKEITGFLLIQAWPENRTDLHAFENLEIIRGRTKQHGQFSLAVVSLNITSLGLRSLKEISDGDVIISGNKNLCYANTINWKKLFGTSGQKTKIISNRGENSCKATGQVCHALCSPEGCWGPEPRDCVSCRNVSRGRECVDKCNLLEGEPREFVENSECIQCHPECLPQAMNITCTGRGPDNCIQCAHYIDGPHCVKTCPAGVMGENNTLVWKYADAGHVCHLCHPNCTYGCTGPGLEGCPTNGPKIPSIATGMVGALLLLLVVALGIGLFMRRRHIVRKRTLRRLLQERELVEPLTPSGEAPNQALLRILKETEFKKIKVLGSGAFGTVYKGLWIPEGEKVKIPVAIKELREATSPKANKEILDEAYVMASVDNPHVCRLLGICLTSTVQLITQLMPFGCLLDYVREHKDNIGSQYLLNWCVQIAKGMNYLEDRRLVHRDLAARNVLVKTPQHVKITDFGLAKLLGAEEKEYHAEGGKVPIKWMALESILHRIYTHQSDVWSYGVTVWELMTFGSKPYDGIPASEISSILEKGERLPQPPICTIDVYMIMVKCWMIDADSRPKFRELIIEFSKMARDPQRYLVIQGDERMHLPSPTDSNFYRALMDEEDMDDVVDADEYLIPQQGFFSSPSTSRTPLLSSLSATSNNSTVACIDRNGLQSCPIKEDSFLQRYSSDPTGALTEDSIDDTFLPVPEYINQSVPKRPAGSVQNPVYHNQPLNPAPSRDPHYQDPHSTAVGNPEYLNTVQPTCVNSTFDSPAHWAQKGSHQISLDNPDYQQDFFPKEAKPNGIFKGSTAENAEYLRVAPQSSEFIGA
test-protocol: Inhibition of EGFR wild type biochemical enzymatic activity (HTRF)
stated-conditions: EGFR wild type, 1 mM ATP, 1 h at room temperature, read-out: IC50 @WT
Description: Biological Example 1: Inhibition of EGFR WT and Mutant Biochemical Enzymatic Activity The inhibition potency of compounds against these enzymes was assessed using Homogenous Time Resolved Fluorescence approach (HTRF, CisBio. Cat No. 62TKOPEJ). Inhibitory effects of the compounds were determined by measuring the enzymatic activity of EGFR enzyme phosphorylates 1 μM TK Substrate-biotin in the presence of 1 mM adenosine-5′-triphosphate (ATP) and varying concentrations of the test compound. […]

Take a look at these entries with their results.
Cc1cc2cc(n1)-c1cnn(C)c1OCCN1CC3CCC(CC3)(C1)n1c(nc3ccc(N4CCN(C5CC5)CC4)cc31)NC2=O [Example B36]: > 5 µM
Cc1cc2cc(n1)-c1cnn(C)c1OCCN1CC3CCC(C3)(C1)n1c(nc3ccc(N(C)CCCN(C)C)cc31)NC2=O (single isomer, unassigned) [Example B45B]: 1.02 µM
Cc1cc2cc(n1)-c1cnn(C)c1OCCN1CC3CCC(CC3)(C1)n1c(nc3ccc(N4CC[C@H](N(C)C)C4)cc31)NC2=O [Example B28]: > 5 µM

## Task Endpoint output: IC50 of Cc1cc2cc(n1)-c1cnn(C)c1OCCN1CC3CCC(C3)(C1)n1c(nc3ccc(N4CCC5(CCN(C)CC5)C4)cc31)NC2=O (single isomer, unassigned) [Example B51B] . Value?
## Result 0.546 µM

## Task Entry Cc1cc2cc(n1)-c1cnn(C)c1OCCN1CC3CCC(C3)(C1)n1c(nc3ccc(N(C)CCN(C)C)cc31)NC2=O (single isomer, unassigned) [Example B47A] has what IC50?
## Result > 5 µM

## Task Fill in the blank: the reported IC50 of Cc1cc2cc(n1)-c1cnn(C)c1OCCN1CC3CCC(C3)(C1)n1c(nc3ccccc31)NC2=O (single isomer, unassigned) [Example B8A] is ____.
## Result > 5 µM

###

assay-system: EGFR (d746-750 C797S) (Homo sapiens, UniProt P00533, C797S/DEL746-750)
Construct: purchased signalchem
Sequence (P00533 with tags, fused parts or gaps DEL746-750/C797S limits assumed): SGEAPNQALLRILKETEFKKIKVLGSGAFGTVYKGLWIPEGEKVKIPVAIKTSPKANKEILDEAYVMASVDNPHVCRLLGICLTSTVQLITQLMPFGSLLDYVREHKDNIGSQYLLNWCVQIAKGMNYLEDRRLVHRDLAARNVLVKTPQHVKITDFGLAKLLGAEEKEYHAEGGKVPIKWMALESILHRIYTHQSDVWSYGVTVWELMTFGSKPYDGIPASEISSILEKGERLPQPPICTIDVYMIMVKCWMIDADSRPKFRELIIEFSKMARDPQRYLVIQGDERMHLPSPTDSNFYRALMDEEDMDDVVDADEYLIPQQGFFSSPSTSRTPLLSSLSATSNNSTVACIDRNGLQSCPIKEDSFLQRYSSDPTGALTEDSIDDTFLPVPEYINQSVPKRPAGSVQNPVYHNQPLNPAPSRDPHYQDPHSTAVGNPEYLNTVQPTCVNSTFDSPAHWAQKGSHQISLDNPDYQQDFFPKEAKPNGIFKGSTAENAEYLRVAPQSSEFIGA
test-protocol: Inhibition of EGFR (d746-750 C797S) biochemical enzymatic activity (HTRF)
stated-conditions: EGFR Del19-C797S, 1 mM ATP, 1 h, room temperature, read-out: IC50 (nM) @Del19-C797S
value-type: IC50 (nM)

// below: answered compounds
CN1CCC2(CN(c3ccc4nc5n(c4c3)C34CCC(CN(CCOc6c(cnn6C)-c6cc(cn(C)c6=O)C(=O)N5)C3)C4)C2)C(F)(F)C1 (single isomer, unassigned) [Example A91B]: 2.9
Cn1ncc2c1OCCN1CC3CCC(C3)(C1)n1c(nc3ccccc31)NC(=O)c1cc-2c(=O)n(C)c1 (single isomer, unassigned) [Example A61A]: 1660

I. Cc1cc2cc(n1)-c1cnn(C)c1OCCN1CC3CCC(CC3)(C1)n1c(nc3ccc(N4CCN(C)CC4)cc31)NC2=O
II. CN1CCC2CN(c3ccc4nc5n(c4c3)C34CCC(CN(CCOc6c(cnn6C)-c6cc(cn(C)c6=O)C(=O)N5)C3)C4)CC21 (single isomer, unassigned) [Example A79A]
III. C[C@@H]1CCCOc2c(cnn2C)-c2cc(cn(C)c2=O)C(=O)Nc2nc3ccc(Br)cc3n2C1
IV. CN(C)CCN(C)c1ccc2nc3n(c2c1)C12CCC(CC1)CN(CCOc1c(cnn1C)-c1cc(cn(C)c1=O)C(=O)N3)C2
## Task Arrange by IC50, high to low. Reply: labels, ordered per the request.
## Result II, III, I, IV
